# reported pKd; entries follow
Molecular target: T1, human BCMA with a His tag (ACROBiosystems, Catalog No.: BCA-H522y) (human)
T1 construct: Bought His-tagged recombinant protein; also called huBCMA-His; Recombinant human BCMA
T1 chain: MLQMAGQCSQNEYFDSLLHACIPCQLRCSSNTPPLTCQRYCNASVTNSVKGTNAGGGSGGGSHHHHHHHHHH
Assay: SPR, Biacore T200
Kindly note that pKd refers to -log10 of the concentration in mol/L and answer with the value alone.

SCT-Aa13(h/h) (antibody, V domains shown, Full IgG format, chimeric: human IgG1 heavy chain constant region, human kappa light chain constant region) VH: QVQLQQSDAELVKPGASVKISCKVSGYTFTDYTIHWMKQRPEQGLEWIGYIYPRDGSTKYNEKFKGKATLTADKSSSTAYMQLNSLTSEDSAVYFCARWDYEGFDYWGQGTTLTVSS VL: DIVMTQSPATLSVTPGDRVSLSCRASQSISDYLHWYQQKSHESPRLLIKYASQSISGIPSRFSGSGSGSDFTLSINSVEPEDVGVYYCQNGHSFPPTFGSGTKLEIK | 8.31

Give reported pKd value for SCT-Aa06(h/h) (antibody, V domains shown, Full IgG format, chimeric: human IgG1 heavy chain constant region, human kappa light chain constant region) VH: EVQLQQSGPELVKPGNSVKISCKASGYSFTGYFMNWVMQSHGKSLEWIGRINPYNGDTFYNQKFKGKATLTVDKSSSTAHMELRSLTSEDSAVYYCARLDYTNYNSYPMDYWGQGTSVTVSS VL: DIQMTHTTSSLSASLGDRVTISCSASQGISNYLNWYLQKPDGTVKLLIYYTSNLHSGVPSRFSGSGSGTDFSLTISNLQPEDIATYYCQQYSKFPWTFGGGTKLEIK
8.27

Source listed as patent US20210332145A1.
